Tested on: Saccharomyces
Test: Antifungal activity, MIC by disc (diffusion) method
Format: cell-based
Conditions: YMG agar, 24 hr at 28° C., read-out: MIC (minimum inhibitory concentration) Saccharomyces
Method: Measurement Method of Antifungal Activity in Various Compounds The minimum inhibitory concentration (MIC) was measured by a disc method (diffusion method). […] As a result, the test bacterium forms a growth inhibition zone (circle) in the periphery of the disc, and the level of sensitivity to the antifungal substance is determined from the diameter of the inhibition circle. Using the aforementioned method, MIC of various compounds was measured. […]
Quantity Name: MIC (µg/mL)

Exercise: Quick one: MIC of O=S1(=O)N=C(CCc2ccc(Cl)cc2)C2ON21 (stereo not shown) [II-4d] ?
Solution: 8

Exercise: Please give the measured MIC for this molecule: O=S1(=O)N=Cc2cccn21 [I-5b]
Solution: 16

Exercise: Consider the molecule shown here: CC1=C(C)C(c2ccccc2)=NS(=O)(=O)N1 [I-2d] What is its recorded MIC?
Solution: 8

Exercise: Any idea what its MIC is? The molecule is O=S1(=O)N=C2C(=COc3ccccc32)C2ON21 (stereo not shown) [II-6a]
Solution: 4

Exercise: Requested field: MIC. Item: O=S1(=O)Nc2ccc(Cl)cc2C2(c3ccccc3)ON21 (stereo not shown) [II-1l]
Solution: 8

I = O=S1(=O)N=CC(CCc2ccc(F)cc2)=N1 [I-4c]
II = CC1=NS(=O)(=O)N2OC12C (stereo not shown) [II-4b]
III = N#Cc1ccc2c(c1)C=NS(=O)(=O)O2 [I-1g]
Exercise: Arrange items by their MIC values in increasing order. Please reply with the labels ordered as requested. Many thanks.
Solution: III, I, II

1 = COc1ccc2c(c1)C=NS(=O)(=O)O2 [I-1d]
2 = O=S1(=O)Oc2ccc(Br)cc2C2ON21 (stereo not shown) [II-1c]
Exercise: Param pair: 1 , 2 . Output: the one whose MIC is numerically greater. API: response body contains the label of the selected item.
Solution: 1

---

Test system: T. mentagrophytes
Assay: Antifungal activity, MIC by disc (diffusion) method
Type: cell-based
Conditions: Trichophyton mentagrophytes, YMG agar, 24 hr at 28° C., read-out: MIC (minimum inhibitory concentration) T. mentagrophytes
Protocol: Measurement Method of Antifungal Activity in Various Compounds The minimum inhibitory concentration (MIC) was measured by a disc method (diffusion method). […] As a result, the test bacterium forms a growth inhibition zone (circle) in the periphery of the disc, and the level of sensitivity to the antifungal substance is determined from the diameter of the inhibition circle. Using the aforementioned method, MIC of various compounds was measured. […]
Quantity Name: MIC (µg/mL)

Exercise: Entry O=S1(=O)N=C2C(=COc3ccccc32)C2ON21 (stereo not shown) has what MIC?
Solution: 1

Exercise: Using the record for O=S1(=O)N=C(c2ccccc2)c2cc(Cl)ccc2N1 , report its MIC.
Solution: 2

I = CC12ON1S(=O)(=O)Oc1ccccc12 (stereo not shown)
II = CC1=NS(=O)(=O)N2OC12C (stereo not shown)
Exercise: Rank I against II by their MIC values and give the higher one. Reply briefly: the label of your chosen item.
Solution: II
(II: 4 µg/mL, I: 2 µg/mL)

---

tested on: T. mentagrophytes; experiment: Antifungal activity, MIC by disc (diffusion) method; format: cell-based; settings: Trichophyton mentagrophytes, YMG agar, 24 hr at 28° C., read-out: MIC (minimum inhibitory concentration) T. mentagrophytes
Quantity Name: MIC (mg/L)

Exercise: MIC of O=[N+]([O-])c1ccc2c(c1)C=NS(=O)(=O)O2 on T. mentagrophytes?
Solution: 1

A = CC12ON1S(=O)(=O)Nc1ccccc12 (stereo not drawn)
B = CC1=NS(=O)(=O)N=C1C
Exercise: Return label of the item with the larger MIC. Candidates: A , B . Selection: enter the item's label.
Solution: B
(B: 4 mg/L, A: 2 mg/L)
